- SYSTEM TESTED: human recombinant CBL-b (human Biotin CBL-b recombinant protein a.a. 39-426) (Homo sapiens)
- Construct: human Biotin CBL-b recombinant protein a.a; 39-426; Biotin (biotinylated)
- Sequence (Q13191 39-426): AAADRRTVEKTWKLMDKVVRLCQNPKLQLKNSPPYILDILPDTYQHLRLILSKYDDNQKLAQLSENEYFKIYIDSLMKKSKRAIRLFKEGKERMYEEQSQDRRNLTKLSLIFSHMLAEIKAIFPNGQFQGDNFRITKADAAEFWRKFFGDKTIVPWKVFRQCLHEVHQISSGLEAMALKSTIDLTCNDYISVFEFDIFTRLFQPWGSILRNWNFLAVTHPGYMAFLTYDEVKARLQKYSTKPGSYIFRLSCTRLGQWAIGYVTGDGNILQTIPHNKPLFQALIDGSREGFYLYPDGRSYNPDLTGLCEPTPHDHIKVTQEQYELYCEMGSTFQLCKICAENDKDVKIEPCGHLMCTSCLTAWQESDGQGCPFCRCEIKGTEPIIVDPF
- PROTOCOL TEXT: Biochemical assay for CBL-b inhibition (ligand displacement TR-FRET)
- RUN CONDITIONS: 50 nM CBL-b, 0.3 μM Bodipy FL-Probe, read-out: IC50 (CBL-b inhibition, group)
pIC50: −log10 of the molar value.
READOUT LABEL: pIC50

// query Need pIC50 of CC1CCC(C)N(Cc2cc(N3Cc4ccc(C5(Cc6nncn6C)COC5)cc4C3=O)nc(C(F)(F)F)c2)C1 (single isomer, unassigned) [Compound 140] , thanks.
// result 5.30 to 6.52

// query Also need Cc1cc(CN2CCC3(CCC3)C2)cc(N2Cc3ccc(-c4ccc(F)cc4-c4nncn4C)cc3C2=O)n1 [Compound 258] , thanks.
// result > 7.10

// query Also need Cc1cc(CNCC2CC2(F)F)cc(N2Cc3ccc(-c4ccc(Cl)cc4-c4nncn4C)cc3C2=O)n1 (stereo not shown) [Compound 269] , thanks.
// result > 7.10

// query Also need Cc1cc(CNCC2CC2)cc(N2Cc3ccc(-c4ccc(Cl)cc4-c4cc[nH]n4)cc3C2=O)n1 [Compound 271] , thanks.
// result 6.52 to 7.10

// query Also need Cn1cnnc1CC1(c2ccc3c(c2)C(=O)N(c2cc(CN4CCCc5c4cnn5C)cc(C(F)(F)F)n2)C3)COC1 [Compound 92] , thanks.
// result 5.30 to 6.52

// query Also need C[C@@H](NCC1CC1)c1cc(Cl)nc(N2Cc3ccc(-c4ccc(Cl)cc4-c4nncn4C)cc3C2=O)c1 (single isomer, unassigned) [Compound 110] , thanks.
// result > 7.10

// query Also need Cn1cnnc1CC1(c2ccc3c(c2)C(=O)N(c2cc(CNCC4CC4)cc(Cl)n2)C3)CC(C#N)C1 (stereo not shown) [Compound 156] , thanks.
// result > 7.10
